- Test target: rat GIP receptor (rGIPr) (Rattus norvegicus)
- Construct: expressed in transfected cells; host or cells: HEK293s or CHO cells
- Sequence (P43219 19-455): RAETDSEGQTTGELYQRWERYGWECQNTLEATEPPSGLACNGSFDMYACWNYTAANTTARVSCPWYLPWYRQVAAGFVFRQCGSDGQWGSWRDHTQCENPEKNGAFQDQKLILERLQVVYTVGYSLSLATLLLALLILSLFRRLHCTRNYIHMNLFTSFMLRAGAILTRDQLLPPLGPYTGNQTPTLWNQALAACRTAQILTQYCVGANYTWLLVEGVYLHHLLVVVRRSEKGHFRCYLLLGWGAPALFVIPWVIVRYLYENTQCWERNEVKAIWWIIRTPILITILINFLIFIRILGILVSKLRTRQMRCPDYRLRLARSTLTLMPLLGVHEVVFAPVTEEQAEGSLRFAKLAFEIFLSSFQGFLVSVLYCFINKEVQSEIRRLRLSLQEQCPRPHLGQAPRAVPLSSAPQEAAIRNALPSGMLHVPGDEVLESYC
- Method: BSA-cAMP assay, cells expressing rat GIP receptor
- Format: cell-based
- Assay setup: Batch 1; BSA-cAMP assay; read-out: rGIPr cAMP activity EC50
Reported pEC50 is given for each of the following substances.
In simple prose, pEC50 is minus the logarithm base ten of a concentration in moles per litre.

IP396 (YSEGTFTSDYSKLLERQAIDEFIAWLLKGGGGGGGSGGGGSGGGGSGGGGSACPPC)    9.72

I would be grateful if you could share the reported pEC50 for IP299: Fc fusion, IgG1-TM(ΔK), SEQ ID NO:351; agonist peptide YSEGTFISDYSKLLEEEAVRDFVEWLKAGG (YSEGTFISDYSKLLEEEAVRDFVEWLKAGGGGGGGSGGGGSGGGGSGGGGSATHTCPPC) .
9.96

I would be grateful if you could share the reported pEC50 for IP311 (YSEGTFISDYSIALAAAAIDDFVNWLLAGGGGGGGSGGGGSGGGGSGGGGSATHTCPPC) .
9.37

I would be grateful if you could share the reported pEC50 for IP308 (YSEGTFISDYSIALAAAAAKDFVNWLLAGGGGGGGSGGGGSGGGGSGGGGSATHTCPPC) .
10.05

---

- Test target: human glucagon receptor (GCGr) (Homo sapiens)
- Construct: expressed in transfected cells; host or cells: HEK293s or CHO cells
- Sequence (P47871 26-477): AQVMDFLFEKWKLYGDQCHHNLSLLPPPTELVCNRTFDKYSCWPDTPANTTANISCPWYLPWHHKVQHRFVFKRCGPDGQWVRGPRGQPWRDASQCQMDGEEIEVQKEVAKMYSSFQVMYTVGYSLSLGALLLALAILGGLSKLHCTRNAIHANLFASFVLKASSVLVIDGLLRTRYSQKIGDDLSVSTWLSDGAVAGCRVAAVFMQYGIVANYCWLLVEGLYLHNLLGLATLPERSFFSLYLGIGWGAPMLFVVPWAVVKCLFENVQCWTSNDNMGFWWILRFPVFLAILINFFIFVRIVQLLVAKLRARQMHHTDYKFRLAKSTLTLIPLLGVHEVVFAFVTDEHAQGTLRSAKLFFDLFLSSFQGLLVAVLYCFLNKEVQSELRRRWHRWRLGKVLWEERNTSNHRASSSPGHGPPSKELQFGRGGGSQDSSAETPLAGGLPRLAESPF
- Method: BSA-cAMP assay, cells expressing human glucagon receptor
- Format: cell-based
- Assay setup: Batch 1, read-out: hGCGr cAMP activity EC50
Property label: pEC50
In simple prose, pEC50 is minus the logarithm base ten of a concentration in moles per litre.

IP420: Fc fusion, IgG1-TM, SEQ ID NO:391; agonist peptide YSEGTFTSDYSKLLEEEATRLFIEWLLAGG (YSEGTFTSDYSKLLEEEATRLFIEWLLAGGGGGGSGGGGSGGGGSGGGGSATHTCPPC)    7.68

I would be grateful if you could share the reported pEC50 for IP359: Fc fusion, IgG1-TM, SEQ ID NO:366; agonist peptide YSEGTFTSDYSKLLEEEAVRLFIEHLLAGG (YSEGTFTSDYSKLLEEEAVRLFIEHLLAGGGGGGSGGGGSGGGGSGGGGSATHTCPPC) .
7.37

Where do the numbers come from? From patent US20160185837A1.
